# Measurement Target: Hexose transporter 1 (Plasmodium falciparum)
# Assay Name: ST_JUDE_LEISH: Cytotoxicity at 2uM final concentration against transgenic Leishmania Mexicana promastigotes LmPfHT that are glucose transport deficient and complemented with the Plasmodium falciparum hexose transporter. Activity is measured by DNA content using SYBR green in vitro
# Type: functional
Value Type: inhibition (%)
One number for each entry, in %.

[[record]]
compound = "c1cncc(CN2CCCN(c3ccc4c(c3)CCN(Cc3ccc(-c5ncc[nH]5)cc3)CC4)CC2)c1"
value_reported = 2.7


I need inhibition for every entry listed below, if you could help.
1. Cc1cccc2nc(-c3ccc(-c4cccc(CNCCNC(=O)c5ccnn5C)c4)cc3)[nH]c12
2. Cc1cccc2nc(-c3ccc(-c4cccc(CN5CCCC(O)C5)c4)s3)[nH]c12 (stereo not drawn)

Data returned:
1. 1.5
2. 4.83
